# assay procedure: Glucose NaCl kinetics of dissolution via refractometry
# Assay type: physicochemical
# condition parameters: 60 mL of water, stirring, particle size 100-200 μm, average of three experiments
assay readout: 50% dissolution reached at (s)
Just the number in s, nothing appended.

                                   compound               assay_readout  data_value
0  O.OC[C@H]1O[C@H](O)[C@H](O)[C@@H](O)[C@@H]1O.OC[C@H]1O[C@H](O)[C@H](O)[C@@H](O)[C@@H]1O.[Cl-].[Na+]  50% dissolution reached at          11
1  OC[C@H]1OC(O)[C@H](O)[C@@H](O)[C@@H]1O (stereo partly shown) [Anhydrous Glucose]  50% dissolution reached at          17
2  O.OC[C@H]1O[C@H](O)[C@H](O)[C@@H](O)[C@@H]1O [Glucose monohydrate, alpha-D-(+)-Glucose monohydrate]  50% dissolution reached at          51

Now for the compound whose 50% dissolution reached at we want.
What 50% dissolution reached at value was documented for this compound, [Cl-].[Na+] [NaCl, sodium chloride] ? 8
